Where do the numbers come from? From paper PMC10547880.

Test system: H1299 cells
Experiment: CCK8 cell viability, H1299
Assay type: cell-based, Human
Settings: H1299, 25 μM, 72 h
Description: Human lung cancer cell line H460 and H1299, human liver normal cell line LO2 were bought from ATCC. DMEM or RPMI 1640 was used as the cell culture medium with 10% FBS and 1% penicillin/streptomycin. […] Cell viability and IC50 values were determined using the CCK8 assay kit. […] The absorbance at 450 nm was measured using a microplate spectrophotometer (Thermo). Cell viability was calculated, with the untreated group taken as 100%. […]
Parameter: Cell viability. Scope: all listed entries.
MEASURED ATTRIBUTE: Cell viability (%)

> print(dat)
                                   molecule  measured.attribute  experimental.result
1  COc1ccccc1-n1cc(-c2cccc(NC(=O)c3cn4c(c(OC)c3=O)C(=O)N3C(C)COC3C4)c2)nn1 (stereo not drawn) [Compound 5g]      Cell viability               103.45
2  COc1c2n(cc(C(=O)Nc3cccc(-c4cn(-c5cc(C(F)(F)F)cc(C(F)(F)F)c5)nn4)c3)c1=O)CC1OCC(C)N1C2=O (stereo not drawn) [Compound 5e]      Cell viability                99.34
3  COc1c2n(cc(C(=O)Nc3cccc(-c4cn(-c5cc(C(F)(F)F)ccc5C(F)(F)F)nn4)c3)c1=O)CC1OCC(C)N1C2=O (stereo not drawn) [Compound 5k]      Cell viability                91.70
4  COc1c2n(cc(C(=O)Nc3cccc(-c4cn(-c5ccccc5C(F)(F)F)nn4)c3)c1=O)CC1OCC(C)N1C2=O (stereo not drawn) [Compound 5a]      Cell viability               102.55
5  COc1c2n(cc(C(=O)Nc3cccc(-c4cn(-c5cccc(Cl)c5)nn4)c3)c1=O)CC1OCC(C)N1C2=O (stereo not drawn) [Compound 5q]      Cell viability                88.40
6  COc1c2n(cc(C(=O)Nc3cccc(-c4cn(-c5ccccc5C)nn4)c3)c1=O)CC1OCC(C)N1C2=O (stereo not drawn) [Compound 5c]      Cell viability                83.51
7  COc1c2n(cc(C(=O)Nc3cccc(-c4cn(-c5cccc(Br)c5)nn4)c3)c1=O)CC1OCC(C)N1C2=O (stereo not drawn) [Compound 5r]      Cell viability                89.82
8  COc1c2n(cc(C(=O)Nc3cccc(-c4cn(-c5c(C)cc(C)cc5C)nn4)c3)c1=O)CC1OCC(C)N1C2=O (stereo not drawn) [Compound 5l]      Cell viability                91.44
9  COc1c2n(cc(C(=O)Nc3cccc(-c4cn(-c5ccccc5I)nn4)c3)c1=O)CC1OCC(C)N1C2=O (stereo not drawn) [Compound 5o]      Cell viability                86.67

---

Parameter: Cell viability. Scope: all listed entries.
System: H460 cells
Assay: CCK8 cell viability and IC50 measurement, H460
Type: cell-based, Human
Settings: H460, 25 μM, 48 h
MEASURED ATTRIBUTE: Cell viability (%)

> print(dat)
                                   compound  experimental.result
1  COc1c2n(cc(C(=O)Nc3cccc(-c4cn(Cc5ccccc5)nn4)c3)c1=O)CC1OCC(C)N1C2=O (stereo not shown)                99.81
2  COc1c2n(cc(C(=O)Nc3cccc(-c4cn(-c5ccc(F)cc5)nn4)c3)c1=O)CC1OCC(C)N1C2=O (stereo not shown)                99.22
3  COc1c2n(cc(C(=O)Nc3cccc(-c4cn(-c5cccc(C(F)(F)F)c5)nn4)c3)c1=O)CC1OCC(C)N1C2=O (stereo not shown)                97.75
4  COc1c2n(cc(C(=O)Nc3cccc(-c4cn(Cc5ccc(C(F)(F)F)cc5)nn4)c3)c1=O)CC1OCC(C)N1C2=O (stereo not shown)               113.95
5  COc1c2n(cc(C(=O)Nc3cccc(-c4cn(-c5ccccc5)nn4)c3)c1=O)CC1OCC(C)N1C2=O (stereo not shown)                88.36
6  CCc1ccccc1-n1cc(-c2cccc(NC(=O)c3cn4c(c(OC)c3=O)C(=O)N3C(C)COC3C4)c2)nn1 (stereo not shown)                92.17
7  COc1c2n(cc(C(=O)Nc3cccc(-c4cn(Cc5ccccc5C)nn4)c3)c1=O)CC1OCC(C)N1C2=O (stereo not shown)               105.51
